# test system: PI3Kδ (p110δ/p85α) (Homo sapiens (Human), UniProt O00329)
# Sequence (O00329 whole entry): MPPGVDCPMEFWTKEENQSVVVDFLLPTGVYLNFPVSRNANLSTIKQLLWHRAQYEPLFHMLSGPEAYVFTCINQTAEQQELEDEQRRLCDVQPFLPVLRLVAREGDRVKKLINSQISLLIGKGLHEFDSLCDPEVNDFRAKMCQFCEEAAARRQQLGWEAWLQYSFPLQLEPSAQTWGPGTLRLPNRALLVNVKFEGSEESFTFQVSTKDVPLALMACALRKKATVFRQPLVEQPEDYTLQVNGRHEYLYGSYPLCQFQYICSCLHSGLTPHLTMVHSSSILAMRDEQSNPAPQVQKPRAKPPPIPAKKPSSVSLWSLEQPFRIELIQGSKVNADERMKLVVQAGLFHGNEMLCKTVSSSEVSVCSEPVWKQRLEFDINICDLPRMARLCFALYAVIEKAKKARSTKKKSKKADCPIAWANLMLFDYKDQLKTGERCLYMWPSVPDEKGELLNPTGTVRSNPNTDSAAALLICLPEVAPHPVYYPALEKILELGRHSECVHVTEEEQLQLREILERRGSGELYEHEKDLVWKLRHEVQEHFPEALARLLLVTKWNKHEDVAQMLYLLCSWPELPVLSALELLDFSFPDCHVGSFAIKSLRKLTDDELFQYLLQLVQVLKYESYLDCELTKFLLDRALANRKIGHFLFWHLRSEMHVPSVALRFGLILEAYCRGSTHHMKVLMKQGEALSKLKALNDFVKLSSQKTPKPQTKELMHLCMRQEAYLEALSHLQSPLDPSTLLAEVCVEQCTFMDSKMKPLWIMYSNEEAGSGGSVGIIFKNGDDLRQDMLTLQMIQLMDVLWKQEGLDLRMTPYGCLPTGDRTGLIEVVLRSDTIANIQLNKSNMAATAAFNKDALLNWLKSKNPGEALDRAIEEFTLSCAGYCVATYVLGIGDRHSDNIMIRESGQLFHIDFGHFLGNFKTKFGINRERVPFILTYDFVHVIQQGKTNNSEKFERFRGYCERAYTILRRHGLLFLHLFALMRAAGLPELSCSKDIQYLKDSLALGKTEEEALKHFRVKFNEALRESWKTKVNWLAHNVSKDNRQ
# Sequence (P27986 whole entry partner): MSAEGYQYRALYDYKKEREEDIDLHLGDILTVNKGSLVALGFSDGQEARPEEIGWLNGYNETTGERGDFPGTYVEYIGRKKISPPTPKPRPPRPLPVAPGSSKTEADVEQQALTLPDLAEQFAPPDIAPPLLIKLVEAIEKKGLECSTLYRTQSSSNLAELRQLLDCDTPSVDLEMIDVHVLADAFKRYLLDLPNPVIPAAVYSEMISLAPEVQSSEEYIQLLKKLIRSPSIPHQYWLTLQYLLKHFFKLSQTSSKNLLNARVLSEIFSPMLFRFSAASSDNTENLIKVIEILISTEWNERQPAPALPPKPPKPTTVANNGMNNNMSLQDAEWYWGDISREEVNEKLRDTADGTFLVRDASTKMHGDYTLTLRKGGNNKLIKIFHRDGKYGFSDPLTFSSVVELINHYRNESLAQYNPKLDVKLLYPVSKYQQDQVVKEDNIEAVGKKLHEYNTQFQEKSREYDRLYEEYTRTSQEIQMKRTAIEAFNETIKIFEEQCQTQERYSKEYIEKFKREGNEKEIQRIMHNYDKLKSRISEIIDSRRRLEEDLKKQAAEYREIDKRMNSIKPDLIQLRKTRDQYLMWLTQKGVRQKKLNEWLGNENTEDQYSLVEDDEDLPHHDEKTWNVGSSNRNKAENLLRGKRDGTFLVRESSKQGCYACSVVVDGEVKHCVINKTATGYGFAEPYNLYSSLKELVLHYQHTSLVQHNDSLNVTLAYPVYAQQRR
# experiment description: PI3Kδ scintillation proximity assay (Example A3)
# condition: 20 μM ATP, 20 μM PIP2, 4 nM PI3Kδ; read-out: PI3Kδ SPA IC50
measured attribute: IC50

| molecule | IC50 |
| --- | --- |
| CCOc1c(C(C)n2nc(C)c3c(N)ncnc32)cc(Cl)c(C#N)c1C1CN(C2CCOC2)C1 (single isomer, unassigned) [Example 227] | ≤ 10 nM |
| CCOc1c(C(C)n2nc(CNC)c3c(N)ncnc32)cc(Cl)c(C)c1-c1ccc(C(=O)N(C)C)nc1 (racemic) [Example 84, tris(trifluoroacetate)] | 50 to 200 nM |

Problem: Given the entry CCOc1c(C(C)n2nc(C)c3c(N)ncnc32)cc(C)c(C#N)c1-c1ccnc(C(=O)N(C)C)c1 (single isomer, unassigned) [Example 340] , what IC50 was observed with PI3Kδ (p110δ/p85α) (Homo sapiens (Human), UniProt O00329)?
Solution: ≤ 10 nM

Value source: patent US9707233B2
